Tested on: ethanol-induced gastric ulcer
Assay: Protective effect on ethanol-induced gastric ulcer in rats
Type: in vivo, rat (male Sprague-Dawley)
Settings: Rattus norvegicus, po, 1 h; 10 mg/kg p.o.; vs. control distilled water
Protocol: 1.2. Protective Effect on Ethanol-induced Gastric Ulcer in Rats Male Sprague-Dawley rats weighing 300-400 g were used in groups of 4-36. After fasting overnight, the animals were given orally the compounds. Thirty minutes later they received absolute ethanol (1 ml/body) orally and were sacrificed after 60 minutes. The stomach was removed and examined for erosions. The ulcer index was obtained in the same way as under 1.1.
Measured inhibition in vivo at 10 mg/kg, listed per entry for reference.
Measured Parameter: inhibition in vivo at 10 mg/kg (%)

• CCOCn1cnc2c1c(=O)n(CCCCC(C)(C)O)c(=O)n2CC = 82
• CCn1c(=O)n(CCCCC(C)(C)O)c(=O)c2c1ncn2C = 74.8
• CCCn1cnc2c1c(=O)n(CCCCC(C)(C)O)c(=O)n2CC = 87.1
• CCn1c(=O)n(CCCCCC(C)(C)O)c(=O)c2c1ncn2C = 77.2
